Each recorded value in this set is attributed to patent US20190071490A1.

Target: T1, rat α-CGRP (1-37) (rat, C-terminal amide; N-terminal biotin when captured on the SA chip)
T1 construct: also called rat α (1-37); α-rat
T1 peptide: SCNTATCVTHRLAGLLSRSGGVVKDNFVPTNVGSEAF
Test: Biacore, 37°C, Fab over CGRP on SA chip
Measurement Type: log10(koff) (log10 of the value in s⁻¹)
# values: log10(koff), units s⁻¹

Example entries and their recorded answers appear below.
G1 variant M56 Fab (Fab, V domains shown, Fab; constant domains as m1) VH: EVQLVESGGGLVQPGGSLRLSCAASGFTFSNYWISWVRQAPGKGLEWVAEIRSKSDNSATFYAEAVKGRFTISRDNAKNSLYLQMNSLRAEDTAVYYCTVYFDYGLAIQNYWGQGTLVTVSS VL: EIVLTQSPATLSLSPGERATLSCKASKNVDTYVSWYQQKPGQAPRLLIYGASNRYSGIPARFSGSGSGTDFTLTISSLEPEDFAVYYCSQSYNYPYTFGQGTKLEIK	-2.03
G1 variant M28 Fab (Fab, V domains shown, Fab; constant domains as m1) VH: EVQLVESGGGLVQPGGSLRLSCAASGFTFSNYWISWVRQAPGKGLEWVAEIRSRSDNSATHYAEAVKGRFTISRDNAKNSLYLQMNSLRAEDTAVYYCTVYFDYGLAIQNYWGQGTLVTVSS VL: EIVLTQSPATLSLSPGERATLSCKASKNVDTYVSWYQQKPGQAPRLLIYGASNRYLGIPARFSGSGSGTDFTLTISSLEPEDFAVYYCSQSYNYPYTFGQGTKLEIK	-2.90
G1 variant M60 Fab (Fab, V domains shown, Fab; constant domains as m1) VH: EVQLVESGGGLVQPGGSLRLSCAASGFTFSNYWISWVRQAPGKGLEWVAEIRSKSDNRATFYAEAVKGRFTISRDNAKNSLYLQMNSLRAEDTAVYYCTVYFDYGLAIQNYWGQGTLVTVSS VL: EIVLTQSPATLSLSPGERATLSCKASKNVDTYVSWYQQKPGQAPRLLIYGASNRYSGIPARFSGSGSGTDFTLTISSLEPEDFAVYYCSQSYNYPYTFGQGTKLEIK	-1.57
G1 variant M10 Fab (Fab, V domains shown, Fab; constant domains as m1) VH: EVQLVESGGGLVQPGGSLRLSCAASGFTFSNYWISWVRQAPGKGLEWVAEIRSESDASATHYAEAVKGRFTISRDNAKNSLYLQMNSLRAEDTAVYYCSSYFDYGLAIQNYWGQGTLVTVSS VL: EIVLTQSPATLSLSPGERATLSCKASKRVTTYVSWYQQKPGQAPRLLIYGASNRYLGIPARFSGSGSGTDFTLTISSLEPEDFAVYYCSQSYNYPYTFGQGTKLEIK	-2.82

Then this binder:
Task: Using known records, supply log10(koff) for G1 variant M6 Fab (Fab, V domains shown, Fab; constant domains as m1) VH: EVQLVESGGGLVQPGGSLRLSCAASGFTFSNYWISWVRQAPGKGLEWVAEIRSESDASATHYAEAVKGRFTISRDNAKNSLYLQMNSLRAEDTAVYYCNAYFDYGLAIQNYWGQGTLVTVSS VL: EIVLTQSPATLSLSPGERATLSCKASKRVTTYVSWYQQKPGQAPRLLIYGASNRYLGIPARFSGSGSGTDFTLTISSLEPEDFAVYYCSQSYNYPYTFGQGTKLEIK
Output: -3.11
